test-target: cyclodextrinase (Lysinibacillus sphaericus)
Construct: is cultured in a medium to yield and accumulate said cyclodextrinase, and this enzyme is collected from the culture; made in house; host or cells: Bacillus sphaericus E-244 (FERM BP-2458), the natural wild-type producer strain; not recombinant
Sequence (Q08341 whole entry): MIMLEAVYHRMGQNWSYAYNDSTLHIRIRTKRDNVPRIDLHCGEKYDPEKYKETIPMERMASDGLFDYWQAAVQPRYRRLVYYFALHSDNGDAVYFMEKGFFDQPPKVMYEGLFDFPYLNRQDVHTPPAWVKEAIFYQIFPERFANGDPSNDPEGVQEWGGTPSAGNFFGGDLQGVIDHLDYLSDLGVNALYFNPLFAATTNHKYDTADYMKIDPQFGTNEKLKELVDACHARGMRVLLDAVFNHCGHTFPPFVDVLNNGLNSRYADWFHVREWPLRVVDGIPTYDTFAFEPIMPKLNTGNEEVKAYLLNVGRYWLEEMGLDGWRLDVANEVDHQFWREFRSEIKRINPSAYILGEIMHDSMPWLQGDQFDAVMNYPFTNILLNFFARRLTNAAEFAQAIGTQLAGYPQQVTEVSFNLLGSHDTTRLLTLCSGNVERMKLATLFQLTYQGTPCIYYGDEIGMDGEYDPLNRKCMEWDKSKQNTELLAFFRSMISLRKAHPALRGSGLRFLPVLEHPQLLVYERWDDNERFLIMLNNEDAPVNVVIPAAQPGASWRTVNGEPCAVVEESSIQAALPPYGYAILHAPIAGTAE
experiment-summary: Influence of metal ions on the activity of the present enzyme
Format: biochemical, Bacillus sphaericus
experimental-context: ions added, final conc. 1 mM; none = 100
reported-metric: Residual activity
Quick note: unit goes after the number.

Given the compound [Zn+2] [Zn^2+] , write its reported Residual activity.
0.0%

Answer with the recorded Residual activity of [Mn+2] [Mn^2+] only.
59.3%

Given the compound [Ni+2] [Ni^2+] , write its reported Residual activity.
0.9%

Please indicate Residual activity recorded for [Hg+2] [Hg^2+]
0.0%

Tell me measured Residual activity for [Ca+2] [Ca^2+] please.
138.2%

Provide Residual activity value for the following compound: [Fe+3] [Fe^3+]
41.6%

Input [Cu+2] [Cu^2+] , output reported Residual activity.
2.8%

For the compound [Mg+2] [Mg^2+] , give its measured Residual activity value.
111.3%
